Tested on: OV90
experiment.summary: Primary qHTS to identify gynecologic anti-cancer compounds using libraries of approved drugs and bioactive compounds (AID 1345084); also: % is scaled to controls: 0 for no effect and ±100 for the full control effect; nearly all actives have a fitted effect of over 55% in size
test.settings: Gynecologic cancer cell panel viability, ATPlite luminescence, 48 h; series mostly up to 57.5 µM
Text: National Center for Advancing Translational Sciences [NCATS] Assay Overview: Chemotherapeutic drug responses vary from cancer to cancer and from patient to patient. […] ATPlite is a luminescence based assay reliant on the conversion of a luciferase substrate to light in the presence of ATP. As a cytotoxic compound will suppress growth and decrease the number of cells, the concentration of ATP will decrease, and less light signal will be detected in the well. […]
Results filed as inconclusive are left out. The source made the active and inactive calls. Calls follow the shape of the dose curve; as a rule, active = well fitted cell-killing curve with a large enough effect; inconclusive = small, poorly fitted or top-dose-only effect, or effect the other way; inactive = flat fitted curve, though single readings scatter.
endpoint.label: activity change, negative = cytotoxicity

# example entries with known answers
O=C(C[C@@H]1C(C(=O)O)=CO[C@@H](O[C@@H]2O[C@H](CO)[C@@H](O)[C@H](O)[C@H]2O)/C1=C\CO)OCCc1ccc(O)c(O)c1 | inactive
CC(C)[C@](O)(c1ccc2cc(OC(F)F)c(OC(F)F)cc2c1)c1cn[nH]n1 | inactive
CC(=O)OCC1OC(O[C@H]2CC[C@]34C[C@]35CC(O)[C@]3(C)[C@@H]([C@H](C)CC/C=C(\C)C(=O)O)C(O)C[C@@]3(C)C5CC[C@H]4C2(C)C)C(O)C(O)C1OC1OCC(O)C(O)C1O (stereo partly drawn) | -7.9% [at 11.6 µM] (inactive)
C[C@]12CC/C(=N\OCC(=O)O)C=C1CC[C@@H]1[C@@H]2[C@@H](O)C[C@@]2(C)[C@H]1CC[C@]2(O)C(=O)CO | inactive
C=C1[C@H](OC(C)=O)[C@H]2[C@@H](OC(=O)c3ccccc3)[C@@H](C)C[C@]2(O)[C@@H](OC(C)=O)[C@H](C)/C=C/C(C)(C)C(=O)[C@H](OC(C)=O)[C@H]1OC(C)=O | inactive
C/C=C(\C)C(=O)O[C@H]1C=CC(=O)O[C@H]1/C=C/[C@H](O)[C@@H](C)O | inactive
C[C@@H]1O[C@@H](OC[C@H]2O[C@@H](OCc3ccccc3)[C@H](O)[C@@H](O)[C@@H]2O)[C@H](O)[C@H](O)[C@H]1O | inactive
CC[C@H]1OC(=O)[C@H](C)C(=O)[C@H](C)[C@@H](OC2O[C@H](C)C[C@H](N(C)C)[C@H]2O)[C@@H](C)C[C@@H](C)C(=O)/C=C/[C@]1(C)O (stereo partly drawn) | inactive
C[C@H]1[C@H](C)CC[C@]2(C(=O)O)CC[C@]3(C)C(=CCC4[C@@]5(C)C[C@@H](O)[C@H](O)C(C)(C)C5CC[C@]43C)[C@H]12 (stereo partly drawn) | inactive
Cn1c2ccc(NC(=O)c3ccccc3)cc2c(=O)n2nc(C(=O)O)cc12 | inactive

Notebook: CC(C)=CCC[C@](C)(O[C@@H]1O[C@H](CO)[C@@H](O)[C@H](O)[C@H]1O)[C@H]1CC[C@]2(C)[C@@H]1[C@H](O)CC1[C@@]3(C)CC[C@H](O)C(C)(C)C3[C@@H](O[C@@H]3O[C@H](CO)[C@@H](O)[C@H](O)[C@H]3O[C@@H]3O[C@@H](C)[C@H](O)[C@@H](O)[C@H]3O)C[C@]12C (stereo partly drawn) , activity change, negative = cytotoxicity read as -3.64% [at 11.6 µM] (inactive)

The compound listed as O=C(/C=C/c1ccc(O)c(O)c1)O[C@@H]1[C@@H](O)[C@H](OC2CCCCC2O)O[C@H](CO)[C@H]1O (stereo partly drawn) shows activity change, negative = cytotoxicity equal to inactive

Please fill in: activity change, negative = cytotoxicity reported for CC(C)=CCC/C(C)=C/CO[C@@H]1O[C@H](CO[C@@H]2OC[C@](O)(CO)[C@H]2O)[C@@H](O)[C@H](O)[C@H]1O = inactive
